studySystem: T1, monkey antigen protein (monkey CD112R, Uniprot ID: A0A2K5WVV8) (monkey, UniProt A0A2K5WVV8 41-171)
T1 sequence: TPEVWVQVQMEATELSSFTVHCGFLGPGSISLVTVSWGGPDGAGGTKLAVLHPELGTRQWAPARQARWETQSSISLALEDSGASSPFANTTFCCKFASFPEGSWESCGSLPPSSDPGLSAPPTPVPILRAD
assayName: ELISA, monkey antigen protein (as Example 6.1)
resultType: EC50 (nM)
Please state the figure in nM; there is no need to write the unit.

These solved cases illustrate the format of a correct answer.
binder	resultType	reportedMeasurement
C7 (antibody, human IgG1, kappa, V domains shown) VH: EVQLQQSGPELVKPGASVKISCKASGYTLTDYYMNWVKQSHGKSLEWIGDINPNNGGTNFNQKFKGKATLTIDKSSSTTYMELRSLTSEDSAVYYCASLFFDYWGQGTTLTVSS VL: DIVMTQSPSSLSVSAGEKVTMSCKSSQSLLNSGNQKNYLAWYQQKPGQPPKLLIYGASTRESGVPDRFTGSGSGTDFTLTISSVQAEDLALYYCQNAHSSPYTFGGGTKLEIKR	EC50	0.08
C64 (antibody, human IgG1, kappa, V domains shown) VH: EVMLVESGGDLVKPGGSLKLSCAASGFTFSSYFMSWVRQTPEKRLEWVATISGGGDKTYYLDILKGRFTISRDNAKNTLYLQMSSLRSEDTALYYCARHEDYAWYAMDYWGQGTSVTVSS VL: QIVLTQSPAIMSASPGEKVTMTCSASSSVNYIYWYQQKPGSSPRLLIYDTSNLASGVPVRFSGSGSGTSYSLTISRMEAEDAATYYCQQWSSYPLTFGAGTKLELKR	EC50	0.054

The record that follows has no EC50 shown yet.
Summary for this binder, C105 (antibody, human IgG1, kappa, V domains shown) VH: EVQLQQSGPELVKPGSSMKISCKASGYTFTDYSMDWVKQSHGKSLEWIGAINPNNGGTSYNQKFKDKATLTVDRSSSTAYMELRSLTSEDSAVYYCARWDSDYWYFDVWATGTTVTVSS VL: DIVMTQSQKFMSTSVGDRVSITCKASQNVRTAVDWYQQKPGQSPKALIYSASNRHTGVPDRFTGSGSGTDFTLTISNVQSEDLADYFCLQHWNYPYTFGGGTKLEIKR : EC50 is 0.065
